Recorded values, source PubChem BioAssay (EPA / NIEHS).

# Read-out: Monocyte Chemoattractant Protein-1 (MCP1), CCL2 (gene 6347)
# procedureDetails: BSK_4H_MCP1: BioMAP Diversity Plus: 4H Assay for Monocyte Chemoattractant Protein-1 (MCP1) Biomarker Activity (AID 2283018)
# studyConditions: primary human endothelial cells (HUVEC); actives raise or lower the signal
# Experimental: BSK_4H is a cell-based, multiplexed-readout assay that uses umbilical vein endothelium, a human vascular primary cell, with measurements taken at 24 hours after chemical dosing in a 96-well plate.BSK_4H_MCP1 is an assay component measured in the BSK_4H assay. It measures MCP-1 antibody related to regulation of gene expression using ELISA technology.Data from the assay component BSK_4H_MCP1 was analyzed into 1 assay endpoint. […]
The source made the active and inactive calls. The calls were made as follows: active = hit-call score of the fitted dose curve at least 0.9, where 1 is the maximum; inactive = score below 0.9.
Select the matching outcome among Y (active), N (inactive)

As a guide, the following entries are already answered.
| compound | assignedClass |
| --- | --- |
| CC[Si](OC(C)=O)(OC(C)=O)OC(C)=O | N |
| O=[N+]([O-])c1cc(C(F)(F)F)ccc1Cl | N |
| CCCCCCCCCCCCCCCCCC(=O)OCC(CC)CCCC (stereo not given) | N |
| CC1COc2ccccc2N1C(=O)C(Cl)Cl (stereo not given) | N |
| N#Cc1ccc(CC(=NNC(=O)Nc2ccc(OC(F)(F)F)cc2)c2cccc(C(F)(F)F)c2)cc1 | N |
| CC(C)(COC(=O)c1ccccc1)COC(=O)c1ccccc1 | Y |
| CCCCCCCCCC=O | N |
| OC1OC[C@@H](O)[C@H](O)[C@H]1O (stereo not given in full) | N |
| Cc1ccc2n[nH]nc2c1 | N |

Read the next record carefully.
// query So what was the verdict on `C#C[C@]1(O)CC[C@H]2[C@@H]3CCC4=Cc5oncc5C[C@]4(C)[C@H]3CC[C@@]21C` in this test?
// result N

###

# testedOn: Paired box protein Pax-6 (Homo sapiens) (UniProt P26367)
# Sequence (P26367 whole entry, looked up): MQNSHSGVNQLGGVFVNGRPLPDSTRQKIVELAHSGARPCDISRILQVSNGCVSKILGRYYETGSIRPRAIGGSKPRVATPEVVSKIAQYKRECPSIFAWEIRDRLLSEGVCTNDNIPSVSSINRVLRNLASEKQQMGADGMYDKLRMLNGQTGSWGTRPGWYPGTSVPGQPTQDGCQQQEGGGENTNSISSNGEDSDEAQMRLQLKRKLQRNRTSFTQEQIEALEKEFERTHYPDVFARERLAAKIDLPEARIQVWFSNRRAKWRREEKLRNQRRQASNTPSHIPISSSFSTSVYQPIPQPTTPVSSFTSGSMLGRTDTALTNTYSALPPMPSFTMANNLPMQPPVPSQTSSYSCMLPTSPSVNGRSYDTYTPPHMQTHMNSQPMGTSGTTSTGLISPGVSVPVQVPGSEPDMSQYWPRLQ
# procedureDetails: ATG_Pax6_CIS: Attagene CIS-FACTORIAL HepG2 Assay for human Paired Box 6 (PAX6) (AID 2282956)
# studyConditions: HepG2 CIS-FACTORIAL PAX6 reporter transcription, RNA readout; actives raise or lower the signal
Activity calls are given as the source filed them. Rule for the calls: active = hit-call score of the fitted dose curve at least 0.9, where 1 is the maximum; inactive = score below 0.9.
Select the matching outcome among active, inactive

As a guide, the following entries are already answered.
| molecule | assignedClass |
| --- | --- |
| CC(C)=CCCC(C)=CCCC(C)=CCO | inactive |
| Cc1cccc(C)c1[N+](=O)[O-] | inactive |
| C=CC[N+](C)(C)CC=C | inactive |
| CCCc1c(OCCCOc2ccc(OCC(=O)O)cc2)ccc(C(C)=O)c1O | inactive |
| c1ccc(CCCc2ccccn2)cc1 | inactive |
| O=S(=O)(O)NC1CCCCC1 | inactive |

// query So what was the verdict on O=C(O)CCCCC1CCSS1 (configuration not stated) in this test?
// result inactive

// query Repeat for the following molecule: `C=C(C)C(=O)NCCCN(C)C`
// result inactive

// query Repeat for the following molecule: `CC(=O)C(=O)O`
// result inactive

// query Repeat for the following molecule: `CC(C)(C)c1n[nH]c(=S)n(N)c1=O`
// result inactive

// query Repeat for the following molecule: `OCCN1CCNCC1`
// result inactive

// query Repeat for the following molecule: `CC(C)(CO)[N+](=O)[O-]`
// result inactive
